# assaySystem: Dipeptidyl peptidase 4 (Homo sapiens)
# Sequence (P27487 whole entry, looked up): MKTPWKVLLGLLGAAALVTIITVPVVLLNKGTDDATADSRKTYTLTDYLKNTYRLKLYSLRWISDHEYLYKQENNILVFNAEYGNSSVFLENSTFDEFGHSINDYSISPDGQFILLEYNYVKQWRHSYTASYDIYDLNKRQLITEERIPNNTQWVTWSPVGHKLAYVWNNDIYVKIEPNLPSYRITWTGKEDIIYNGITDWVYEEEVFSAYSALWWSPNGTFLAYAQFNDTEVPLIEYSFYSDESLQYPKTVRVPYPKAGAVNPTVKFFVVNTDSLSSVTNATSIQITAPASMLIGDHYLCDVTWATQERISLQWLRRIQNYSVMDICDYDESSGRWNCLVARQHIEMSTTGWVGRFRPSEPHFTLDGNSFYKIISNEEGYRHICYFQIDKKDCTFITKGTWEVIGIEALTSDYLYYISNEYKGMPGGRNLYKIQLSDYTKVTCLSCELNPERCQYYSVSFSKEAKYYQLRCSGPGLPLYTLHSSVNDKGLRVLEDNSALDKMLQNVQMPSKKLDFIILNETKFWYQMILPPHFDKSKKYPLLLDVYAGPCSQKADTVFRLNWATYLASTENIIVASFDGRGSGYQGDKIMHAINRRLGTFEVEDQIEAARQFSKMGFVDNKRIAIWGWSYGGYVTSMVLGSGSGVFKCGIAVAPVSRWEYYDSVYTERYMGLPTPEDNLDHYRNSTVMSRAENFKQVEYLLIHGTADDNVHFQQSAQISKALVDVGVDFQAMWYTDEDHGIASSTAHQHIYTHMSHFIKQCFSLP
# assayProcedure: Inhibition of DPP4 at 10 uM assessed as […] release after 1 hr relative to control
Examples of molecules with documented inhibition follow.

{"columns": ["smilesEntry", "inhibition [%]"],
 "data": [
  ["COc1ccc(CCc2ccccc2N2C(=O)c3c(Cl)c(Cl)c(Cl)c(Cl)c3C2=O)cc1OC", 2],
  ["O=C1c2ccccc2C(=O)N1c1ccc(CCc2ccccc2)cc1", 6],
  ["Cc1ccc(CCc2cccc(N3C(=O)c4c(Cl)c(Cl)c(Cl)c(Cl)c4C3=O)c2)cc1", 25],
  ["O=C1c2c(Cl)c(Cl)c(Cl)c(Cl)c2C(=O)N1c1cccc(CCc2cccc(C(F)(F)F)c2)c1", 87],
  ["O=C1c2ccccc2C(=O)N1c1cccc(CCc2ccc(O)c(O)c2)c1", 7],
  ["O=C1c2ccccc2C(=O)N1c1ccccc1CCc1ccc(O)c(O)c1", 4],
  ["COc1ccc(CCc2cccc(N3C(=O)c4c(Cl)c(Cl)c(Cl)c(Cl)c4C3=O)c2)cc1OC", 0],
  ["O=C1c2ccccc2C(=O)N1c1ccccc1CCc1ccccc1", 0],
  ["O=C1c2ccccc2C(=O)N1c1ccc(CCc2ccc(O)c(O)c2)cc1", 7],
  ["O=C1c2c(Cl)c(Cl)c(Cl)c(Cl)c2C(=O)N1c1cccc(CCc2ccc(C(F)(F)F)cc2)c1", 38],
  ["O=C1c2c(Cl)c(Cl)c(Cl)c(Cl)c2C(=O)N1c1ccc(CCc2ccc(O)c(O)c2)cc1", 11]
]}

Hello, the source for this data is ChEMBL document CHEMBL1770097, in case you need it.
